- System: MDA-MB-231 cell line
- Protocol summary: MTT cell viability assay
- Assay type: cell-based, human
- Particulars: MTT method, 48 h

{"Molecule": "CCCC(=O)c1c(O)c(Cc2c(O)c(C)c(OC)c(C(=O)CCC)c2O)c(O)c(Cc2c(O)c(C)c(OC)c(C(=O)CCC)c2O)c1O [AGC, Agrimol C]", "IC50, nM": 2440}

====

- Test system: H460 cell line
- Protocol summary: MTT cell viability assay
- Format: cell-based, human
- Particulars: MTT method, 48 h; read-out: IC50 H460 cell line
pIC50: −log10 of the molar value.

{"Entry smiles": "CCCC(=O)c1c(O)c(Cc2c(O)c(C)c(OC)c(C(=O)CCC)c2O)c(O)c(Cc2c(O)c(C)c(OC)c(C(=O)CCC)c2O)c1O", "pIC50": 5.75}
